B1: INTS4 (parent)
chain: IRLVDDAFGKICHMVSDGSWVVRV

# Variants of: B1
# PROTOCOL_NOTES: protein stability index of a GFP-peptide fusion (GPS, HEK-293T) (PSI 1-6); higher = more stable;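 note: lentivirally expressed fusions sorted by FACS into six bins by GFP to DsRed ratio, PSI derived from sequencing read proportions per bin multiplied by bin number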
# RUN_PARAMETERS: c terminus: a fixed tail appended
# maps each entry to its protein stability index

The following variants have reported results that may help.
   mutation_string  test_result
0              L3F         2.76
1              G9M         2.96
2              D6M         3.24

Consider V22F . Its measured protein stability index is 3.53

Looking up K10L , I see its protein stability index listed as 2.96

Memo: W20G , reported protein stability index: 1.7

Reported protein stability index for I11M was 2.41

Noted for V22L : its protein stability index reads 2.82

// protein stability index value for V4Y : 2.46

Measured protein stability index of M14I : 2.62

# protein stability index (variant: I1K ) is 3.49
